Kindly state self-splicing fitness (ln) for each of the entries shown.
# assay.overview: self-splicing fitness, log relative to wild type (ln ratio); higher = more splicing; Tetrahymena group I intron in knt gene, E. coli kanamycin selection, DiMSum; sequences stand for … in CUCUCU…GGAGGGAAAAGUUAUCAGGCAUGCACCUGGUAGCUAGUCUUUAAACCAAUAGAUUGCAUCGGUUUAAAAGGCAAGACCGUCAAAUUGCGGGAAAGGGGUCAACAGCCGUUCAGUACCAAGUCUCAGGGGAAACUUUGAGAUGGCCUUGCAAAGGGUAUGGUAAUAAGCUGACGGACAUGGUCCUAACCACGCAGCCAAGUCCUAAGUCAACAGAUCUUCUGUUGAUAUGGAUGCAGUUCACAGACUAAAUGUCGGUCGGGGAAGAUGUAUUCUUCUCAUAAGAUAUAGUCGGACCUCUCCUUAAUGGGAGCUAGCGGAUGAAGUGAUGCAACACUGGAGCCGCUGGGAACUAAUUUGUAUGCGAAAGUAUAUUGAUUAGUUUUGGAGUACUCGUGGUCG;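 also: selection with 25 µg/mL kanamycin versus none on LB agar overnight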
# condition.summary: 37 °C
Numbers only.

Recorded self-splicing fitness (ln), per entry:
[[record]]
construct_sequence = "UGUCAGCAAUAUUACGUCGU"
parameter = "self-splicing fitness (ln)"
result_value = -0.759

[[record]]
construct_sequence = "UACCAGCAAUAUUACGAAUA"
parameter = "self-splicing fitness (ln)"
result_value = 0.199

[[record]]
construct_sequence = "UUUGAGCAAUAUUACGGCAU"
parameter = "self-splicing fitness (ln)"
result_value = -1.62


Q: Item CCAAAGCAAUAUUACGUUUC has what recorded self-splicing fitness (ln)?
A: -2.78
